Data provenance: patent US20220282217A1

STUDY_SYSTEM: HLA-A02.01 (Homo sapiens, UniProt P04439, D140Y/D185E/D98H/E176V/E277Q/G131W/G231S/I119V/I121R/I166T/I218V/L300P/L318F/N151K/N90K/P208A/P217A/Q86G/Q94H/R138H/R169H/T345S)
TEST_DESCRIPTION: Class I MHC peptide binding affinity (displacement of radiolabeled reference peptide)
STUDY_CONDITIONS: Observed Affinity (IC50; (nM)), allele A02.01
Where a SMILES comes first, the peptide text is derived from it.
TEST_READOUT: log10 IC50 (log10 of the value in nM)
Scale type: logarithmic (base 10). Underlying IC50 unit: nM.

Retrieve log10 IC50 measured for CC[C@H](C)[C@H](NC(=O)[C@H](CC(N)=O)NC(=O)[C@H](CCSC)NC(=O)[C@@H](N)Cc1c[nH]cn1)C(=O)N[C@@H](C)C(=O)N[C@@H](CC(N)=O)C(=O)N[C@@H](CC(C)C)C(=O)N[C@@H](CC(C)C)C(=O)NCC(=O)N[C@@H](C)C(=O)O (H-HMNIANLLGA-OH; N-terminus and C-terminus assumed) and print it.
2.63

Retrieve log10 IC50 measured for CC[C@H](C)[C@H](NC(=O)[C@H](CC(N)=O)NC(=O)[C@@H](N)CCSC)C(=O)N[C@@H](C)C(=O)N[C@@H](CC(N)=O)C(=O)N[C@@H](CC(C)C)C(=O)N[C@@H](CC(C)C)C(=O)NCC(=O)N[C@@H](C)C(=O)O (H-MNIANLLGA-OH; N-terminus and C-terminus assumed) and print it.
2.11

Retrieve log10 IC50 measured for CC(C)C[C@H](NC(=O)[C@H](CC(=O)O)NC(=O)[C@H](CO)NC(=O)[C@H](CCC(N)=O)NC(=O)[C@@H](N)CCC(N)=O)C(=O)N[C@@H](CCC(N)=O)C(=O)N1CCC[C@H]1C(=O)N1CCC[C@H]1C(=O)N[C@@H](C)C(=O)O (H-QQSDLQPPA-OH; N-terminus and C-terminus assumed) and print it.
1.85

Retrieve log10 IC50 measured for CC(C)C[C@H](NC(=O)[C@H](CO)NC(=O)[C@H](CCCCN)NC(=O)[C@H](CC(C)C)NC(=O)[C@@H](NC(=O)[C@H](CO)NC(=O)[C@@H]1CCCN1C(=O)[C@H](CC(C)C)NC(=O)[C@@H](N)Cc1ccccc1)[C@@H](C)O)C(=O)O and print it.
1.32

Retrieve log10 IC50 measured for CC(C)C[C@H](NC(=O)[C@@H](N)CCCCN)C(=O)NCC(=O)NCC(=O)NCC(=O)N[C@@H](CCC(N)=O)C(=O)N[C@@H](Cc1c[nH]cn1)C(=O)NCC(=O)N[C@@H](CCC(=O)O)C(=O)N[C@H](C(=O)O)C(C)C (H-KLGGGQHGEV-OH; N-terminus and C-terminus assumed) and print it.
2.59
